System: SNU-C4 xenografted nude mice
Test: Biodistribution study in SNU-C4 xenografted nude mice after intravenous injection
Assay type: in vivo, mouse
Conditions: heart, 10 min after intravenous injection
Description: Human colon cancer cell line SNU-C4 was cultured in RPMI1640 media containing 10% fetal bovine serum and harvested using trypsin. The cells were washed using 10 mL PBS and centrifugation at 3,000 rpm. […] The injected mice were sacrificed at 10 min, 30 min, 1 hr, and 2 hr, cancer, blood, muscle, heart, liver, spleen, stomach, intestine, and bone were obtained, weighed, and their radioactivities were counted. The results were expressed as percentages of injected dose per gram tissue (% ID/g).
observable: % ID/g Heart (% ID/g)
Answers are plain numbers, in % ID/g.

[
  {
    "compound": "O=C([O-])CN1CCN(CC(=O)[O-])CCN(CC(=O)O)CCN(CC(=O)[O-])CC1.[68Ga+3] [^68Ga-DOTA, reference compound]",
    "unit-abbrev": "% ID/g",
    "endpoint-result": 2.04
  },
  {
    "compound": "O=C([O-])CN1CCNCCN(CC(=O)[O-])CCNCC1.[68Ga+3] [^68Ga-DO2A, reference compound]",
    "unit-abbrev": "% ID/g",
    "endpoint-result": 2.33
  },
  {
    "compound": "NC(CN1CCN(CC(=O)[O-])CCNCCN(CC(=O)[O-])CC1)C(=O)[O-].[68Ga+3] (centres unmarked) [^68Ga-DO2A-ala]",
    "unit-abbrev": "% ID/g",
    "endpoint-result": 1.98
  }
]

Please state % ID/g Heart for every compound in the list that follows.
1. N[C@@H](CN1CCN(CC(=O)[O-])CCN(CC(=O)[O-])CCN(CC(=O)[O-])CC1)C(=O)O.[68Ga+3] (stereo in doubt) [^68Ga-DO3A-ala]
2. NC(CNC(=O)CN1CCN(CC(=O)[O-])CCN(CC(=O)[O-])CC1)C(=O)[O-].[68Ga+3] (centres unmarked) [^68Ga-NOTA-ala]
3. O=C([O-])CN1CCNCCN(CC(=O)[O-])CCN(CC(=O)[O-])CC1.[68Ga+3] [^68Ga-DO3A, reference compound]
4. O=C([O-])CN1CCN(CC(=O)[O-])CCN(CC(=O)[O-])CC1.[68Ga+3] [^68Ga-NOTA, reference compound]
5. NC(CNC(=O)CN1CCN(CC(=O)[O-])CCN(CC(=O)[O-])CCN(CC(=O)[O-])CC1)C(=O)O.[68Ga+3] (centres unmarked) [^68Ga-DOTA-ala]

1. 2.70
2. 2.13
3. 1.75
4. 1.83
5. 2.19

---

system: SNU-C4 xenografted nude mice; assay: Biodistribution study in SNU-C4 xenografted nude mice after intravenous injection; format: in vivo, mouse; details: liver, 30 min after intravenous injection
Would you mind telling me the reported % ID/g Liver of each entry?
Give bare numbers, in % ID/g.

Please state % ID/g Liver for every molecule in the list that follows.
1. O=C([O-])CN1CCN(CC(=O)[O-])CCN(CC(=O)[O-])CC1.[68Ga+3] [^68Ga-NOTA, reference compound]
2. O=C([O-])CN1CCNCCN(CC(=O)[O-])CCNCC1.[68Ga+3] [^68Ga-DO2A, reference compound]
3. NC(CN1CCN(CC(=O)[O-])CCNCCN(CC(=O)[O-])CC1)C(=O)[O-].[68Ga+3] (stereo not shown) [^68Ga-DO2A-ala]

1: 1.44; 2: 2.75; 3: 1.46

Give the measured % ID/g Liver of O=C([O-])CN1CCNCCN(CC(=O)[O-])CCN(CC(=O)[O-])CC1.[68Ga+3] [^68Ga-DO3A, reference compound] .
1.35
